- Tested Target: human α3β3γ2 GABAARs (benzodiazepine site) (Homo sapiens (Human), UniProt P18507+P34903)
- Measurement Notes: In vitro radioligand binding assay ([3H]Ro15-1788 displacement), α3-GABAAR Ki
- Assay Setup: L(tk-) cell membranes, 4 nM [3H]Ro15-1788
Endpoint Name: Ki (nM)

Compound Smiles | Measured Value
CCCNC(=O)c1c(N)c2cccc(-c3cc(OCc4ccc(C)nc4)ccc3F)c2[nH]c1=O | 0.97
CCCNC(=O)c1c(N)c2cccc(-c3cccnc3OC)c2[nH]c1=O | 6.02
CCCNC(=O)c1c(N)c2cccc(-c3cc(CN4CCC5(CC4)CN(C)C5)ccc3F)c2[nH]c1=O | 5.43
CCCNC(=O)c1c(N)c2cccc(-c3cc(F)ccn3)c2[nH]c1=O | 1.65
CCCNC(=O)c1c(N)c2cccc(-c3nc(OC)ncc3F)c2[nH]c1=O | 0.64
[2H]C([2H])([2H])C([2H])([2H])C([2H])([2H])NC(=O)c1c(N)c2cccc(-c3cnccc3OC)c2[nH]c1=O | 5.41
CCCNC(=O)c1c(N)c2cccc(-c3cc(OCc4coc(C)n4)ccc3F)c2[nH]c1=O | 3.56
CCCNC(=O)c1c(N)c2cccc(-c3ncccc3C)c2[nH]c1=O | 16.1
CCCNC(=O)c1c(N)c2cccc(-c3nc(OC)ccc3F)c2[nH]c1=O | 0.19
CCCNC(=O)c1c(N)c2cccc(-c3cnc(C)cc3OC)c2[nH]c1=O | 27.9
CCCNC(=O)c1c(N)c2cccc(-c3nc(C)ccc3F)c2[nH]c1=O | 1.17
CCCNC(=O)c1c(N)c2cccc(-c3cccc4c3OC(F)(F)O4)c2[nH]c1=O | 1.63
CCCNC(=O)c1c(N)c2cccc(-c3ccnc(CO)c3)c2[nH]c1=O | 6.86
CCCNC(=O)c1c(N)c2cccc(-c3cccc(OCc4cccnc4)n3)c2[nH]c1=O | 0.41
CCCNC(=O)c1c(N)c2cccc(-c3nc(CN4CCN(C)CC4)ccc3F)c2[nH]c1=O | 4.99
CCCNC(=O)c1c(N)c2cccc(-c3cc(OC)ncc3F)c2[nH]c1=O | 1.58
CCCNC(=O)c1c(N)c2cccc(-c3cccc(OC(F)F)n3)c2[nH]c1=O | 1.59
